# MIC per entry
# Test system: Staphylococcus aureus
# procedure-text: Antibacterial activity against penicillin-resistant Staphylococcus aureus by the broth microdilution method
# Format: functional
metric: MIC (µg/mL)

CC[C@H]1OC(=O)[C@H](C)[C@@H](O[C@H]2C[C@@](C)(OC)[C@@H](OC(=O)NCCCCNC(=O)c3ccc(Br)cc3)[C@H](C)O2)[C@H](C)[C@@H](O[C@@H]2O[C@H](C)C[C@H](N(C)C)[C@H]2O)[C@](C)(O)C[C@@H](C)CN(C)[C@H](C)[C@H]2OC(=O)O[C@@]21C : 32
CC[C@H]1OC(=O)[C@H](C)[C@@H](O[C@H]2C[C@@](C)(OC)[C@@H](OC(=O)NCCNC(=O)c3ccc(OC)cc3)[C@H](C)O2)[C@H](C)[C@@H](O[C@@H]2O[C@H](C)C[C@H](N(C)C)[C@H]2O)[C@](C)(O)C[C@@H](C)CN(C)[C@H](C)[C@H]2OC(=O)O[C@@]21C : 4

----------
Recorded MIC, one value per entry.
# Test system: Staphylococcus aureus
# procedure-text: Antibacterial activity against penicillin-resistant Staphylococcus aureus by the broth microdilution method
# Format: functional
metric: MIC (µg/mL)

CC[C@H]1OC(=O)[C@H](C)[C@@H](O[C@H]2C[C@@](C)(OC)[C@@H](OC(=O)NCCNC(=O)c3ccccc3OC)[C@H](C)O2)[C@H](C)[C@@H](O[C@@H]2O[C@H](C)C[C@H](N(C)C)[C@H]2O)[C@](C)(O)C[C@@H](C)CN(C)[C@H](C)[C@H]2OC(=O)O[C@@]21C : 64
CC[C@H]1OC(=O)[C@H](C)[C@@H](O[C@H]2C[C@@](C)(OC)[C@@H](OC(=O)NCCNC(=O)c3ccc(Br)cc3)[C@H](C)O2)[C@H](C)[C@@H](O[C@@H]2O[C@H](C)C[C@H](N(C)C)[C@H]2O)[C@](C)(O)C[C@@H](C)CN(C)[C@H](C)[C@H]2OC(=O)O[C@@]21C : 2
CC[C@H]1OC(=O)[C@H](C)[C@@H](O[C@H]2C[C@@](C)(OC)[C@@H](OC(=O)NNC(=O)c3ccc(OC)c(OC)c3)[C@H](C)O2)[C@H](C)[C@@H](O[C@@H]2O[C@H](C)C[C@H](N(C)C)[C@H]2O)[C@](C)(O)C[C@@H](C)CN(C)[C@H](C)[C@H]2OC(=O)O[C@@]21C : 1

----------
# Test system: Staphylococcus aureus
# procedure-text: Antibacterial activity against […] Staphylococcus aureus ATCC 29213 by the broth microdilution method
# Type: functional
metric: MIC (µg/mL)

CC[C@H]1OC(=O)[C@H](C)[C@@H](O[C@H]2C[C@@](C)(OC)[C@@H](OC(=O)NCCNC(=O)c3ccccc3OC)[C@H](C)O2)[C@H](C)[C@@H](O[C@@H]2O[C@H](C)C[C@H](N(C)C)[C@H]2O)[C@](C)(O)C[C@@H](C)CN(C)[C@H](C)[C@H]2OC(=O)O[C@@]21C : 8
CC[C@H]1OC(=O)[C@H](C)[C@@H](O[C@H]2C[C@@](C)(OC)[C@@H](OC(=O)NNC(=O)c3ccccc3OC)[C@H](C)O2)[C@H](C)[C@@H](O[C@@H]2O[C@H](C)C[C@H](N(C)C)[C@H]2O)[C@](C)(O)C[C@@H](C)CN(C)[C@H](C)[C@H]2OC(=O)O[C@@]21C : 16
CC[C@H]1OC(=O)[C@H](C)[C@@H](O[C@H]2C[C@@](C)(OC)[C@@H](OC(=O)NNC(=O)c3ccc(OC)c(OC)c3)[C@H](C)O2)[C@H](C)[C@@H](O[C@@H]2O[C@H](C)C[C@H](N(C)C)[C@H]2O)[C@](C)(O)C[C@@H](C)CN(C)[C@H](C)[C@H]2OC(=O)O[C@@]21C : 4
CC[C@H]1OC(=O)[C@H](C)[C@@H](O[C@H]2C[C@@](C)(OC)[C@@H](OC(=O)NCCNC(=O)c3ccc(F)cc3)[C@H](C)O2)[C@H](C)[C@@H](O[C@@H]2O[C@H](C)C[C@H](N(C)C)[C@H]2O)[C@](C)(O)C[C@@H](C)CN(C)[C@H](C)[C@H]2OC(=O)O[C@@]21C : 16
CC[C@H]1OC(=O)[C@H](C)[C@@H](O[C@H]2C[C@@](C)(OC)[C@@H](OC(=O)NCCCCNC(=O)c3cc([N+](=O)[O-])cc([N+](=O)[O-])c3)[C@H](C)O2)[C@H](C)[C@@H](O[C@@H]2O[C@H](C)C[C@H](N(C)C)[C@H]2O)[C@](C)(O)C[C@@H](C)CN(C)[C@H](C)[C@H]2OC(=O)O[C@@]21C : 4

Data origin, for the record: ChEMBL document CHEMBL1828549
